From: PubChem BioAssay AID1159580

method.summary: chemical genetic growth profiling, strain panel (AID 1159580);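 further: tested at 20 µM; growth read once vehicle control cultures reached saturation at 30 °C; 1 = growth at the plate median or of vehicle wells; lower values mean less growth of the strain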
assay.context: S. cerevisiae deletion strains, growth OD, locus YAL040C, strain CLN3, hits give low values
Out of some 5,500 compounds screened, about 2,000 (36%) were called active. Another 18% or so got no clear call; they are omitted. The list shows a part of the results.
# normalized growth listing for each entry below
Respond using a number only.

compound | normalized growth
C[C@@](Cc1ccc(O)c(O)c1)(NN)C(=O)O | 1.01
CC(N)=NCCCC[C@@H](N)C(=O)O | 0.998
Oc1ccc2c3c1O[C@H]1c4oc5ccccc5c4C[C@@]4(O)C(C2)N(CC2CC2)CCC314 (stereo not given in full) | 1.01
Oc1cc(O)cc(/C=C/c2ccc(O)c(O)c2)c1 | 1.01

Consider now this further compound.
stdin: Can you share its normalized growth? I mean this compound: C[C@H](Cc1ccc2c(c1)OC(C(=O)O)(C(=O)O)O2)NC[C@H](O)c1cccc(Cl)c1
stdout: 1.02

###

method.summary: chemical genetic growth profiling, strain panel (AID 1159580);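 further: tested at 20 µM; growth read once vehicle control cultures reached saturation at 30 °C; 1 = growth at the plate median or of vehicle wells; lower values mean less growth of the strain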
assay.context: S. cerevisiae deletion strains, growth OD, locus YBR279W, strain paf1
Screen size: about 5,500 compounds; about 2,000 (36%) were called active. Roughly 18% stayed inconclusive and do not appear here. Cut-off read from the data, not from the text of the source: active = normalized growth mostly below about 0.91 (no sharp cut-off); inconclusive = no clear call, values can overlap the other calls; inactive = mostly above about 0.92. This is one part of the list.
Just give me one of these, please: active, inactive

molecule | cat
Cc1cccc(CN2CCN(C(c3ccccc3)c3ccc(Cl)cc3)CC2)c1 (stereo not given) | active
CC[C@@]1(C2O[C@@H](C3O[C@@](O)(CC)[C@H](C)C[C@@H]3C)C[C@@H]2C)CC[C@H]([C@]2(C)CCC3(C[C@H](O)[C@@H](C)[C@@H]([C@H](C)[C@@H](OC)[C@H](C)C(=O)O)O3)O2)O1 (stereo not given in full) | inactive
NCc1ccc(S(N)(=O)=O)cc1 | inactive

stdin: Per the assay record, what outcome was assigned to CCN(CC)CCOC(=O)C(Cc1cccc2ccccc12)CC1CCCO1 (stereo not given) ?
stdout: inactive

stdin: And what about the molecule C[C@@H]1C[C@@H]([C@H](O)CC2CC(=O)NC(=O)C2)C(=O)[C@@H](C)C1 ?
stdout: active

###

# normalized growth listing for each entry below
method.summary: chemical genetic growth profiling, strain panel (AID 1159580);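 further: tested at 20 µM; growth read once vehicle control cultures reached saturation at 30 °C; 1 = growth at the plate median or of vehicle wells; lower values mean less growth of the strain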
assay.context: S. cerevisiae deletion strains, growth OD, locus YJL187C, strain SWE1, hits give low values
The campaign covered roughly 5,500 compounds. About 2,000 (36%) were called active. Another 18% or so got no clear call; they are omitted. The list shows a part of the results.
Respond using a number only.

Some solved entries appear below for comparison.
molecule | normalized growth
Cc1cccc2nc(-c3ccccc3)oc(=O)c12 | 0.946
CCOC(=O)CCCCCCCCCCCCC1C=CCC1 (stereo not given) | 0.98
CC[C@]12CCCN3CCc4c(n(c5ccccc45)C(=O)C1)[C@@H]32 | 1.01
COc1ccc(/C=C/C(=O)c2ccc(O)cc2O)cc1 | 0.492
CC/C(=N/Oc1ccc(C(F)(F)F)cn1)c1ccc(-c2ccccc2F)cc1 | 0.999
CCCN(CCC)CCc1cccc2c1CC(=O)N2 | 0.976
CC1(C)O[C@@H]2CC3C4CCC5=CC(=O)C=C[C@]5(C)C4[C@@H](O)C[C@]3(C)[C@]2(C(=O)CO)O1 (stereo not given in full) | 1
O=C(O)c1cc(=O)c(O)c2c(O)c(O)c(O)cc2c1 | 0.737
COc1ccc(/C=C/C(=O)O)cc1OC | 1.01
C[C@@H]1CC2C3CCC4=CC(=O)C=C[C@]4(C)[C@@]3(F)[C@@H](O)C[C@]2(C)[C@@]1(O)C(=O)COP(=O)(O)O (stereo not given in full) | 0.988

stdin: Can you share its normalized growth? I mean this molecule: CCOC(=O)C(C)(N)Cc1ccc(O)c(O)c1 (stereo not given)
stdout: 0.977

stdin: And what about the molecule Cc1ccc(C(C)C)cc2c(C)ccc1-2 ?
stdout: 1.01

stdin: And what about the molecule CCC(COC(=O)c1cc(OC)c(OC)c(OC)c1)(c1ccccc1)N(C)C (stereo not given) ?
stdout: 0.988

stdin: And what about the molecule CC1(C)C2CC(=O)O[C@@]3(C)C4=CC(=O)O[C@@H](c5ccoc5)[C@]4(C)CCC3[C@@]2(C)C=C[C@H]1O (stereo not given in full) ?
stdout: 0.983

stdin: And what about the molecule N[C@@H](CCC(=O)N[C@@H](CCSC(CC(=O)O)C(=O)O)C(=O)NCC(=O)O)C(=O)O (stereo not given in full) ?
stdout: 0.992

stdin: And what about the molecule C[C@](N)(Cc1ccc(O)c(O)c1)C(=O)O ?
stdout: 0.978

stdin: And what about the molecule CO[C@@H]1[C@@H](O[C@@H]2O[C@H](C)[C@@H](O[C@H]3C[C@@](C)(O)[C@H](O)[C@H](C)O3)[C@H](N(C)C)[C@H]2O)[C@@H](CC=O)C[C@@H](C)[C@@H](O[C@H]2CC[C@H](N(C)C)[C@@H](C)O2)/C=C/C=C/C[C@H](C)OC(=O)C[C@H]1O ?
stdout: 1.01

stdin: And what about the molecule CN(Cc1cnc2nc(N)nc(N)c2n1)c1ccc(C(=O)NC(CCC(=O)O)C(=O)O)cc1 (stereo not given) ?
stdout: 0.953

stdin: And what about the molecule CC[C@]12CCCN3CCc4c(n(c5ccccc45)[C@](O)(C(=O)OC)C1)[C@@H]32 ?
stdout: 0.985

stdin: And what about the molecule Nc1nc2ncc(CNc3ccc(C(=O)N[C@@H](CCC(=O)O)C(=O)O)cc3)nc2c(=O)[nH]1 ?
stdout: 0.999

stdin: And what about the molecule O=C(O)c1cc(=O)c(O)c2c(O)c(O)ccc2c1 ?
stdout: 0.995

stdin: And what about the molecule COC(=O)c1ccc(-c2ccccc2F)cc1 ?
stdout: 0.961

stdin: And what about the molecule COc1ccccc1N1CCN(Cc2ccc(F)cc2)CC1 ?
stdout: 1.02

stdin: And what about the molecule Nc1nc2c(c(=O)[nH]1)N(C=O)C(CNc1ccc(C(=O)N[C@@H](CCC(=O)O)C(=O)O)cc1)CN2 (stereo not given in full) ?
stdout: 0.977

stdin: And what about the molecule COc1ccc(C[C@H](N)C(=O)N[C@@H]2[C@@H](CO)OC(n3cnc4c(N(C)C)ncnc43)[C@@H]2O)cc1 (stereo not given in full) ?
stdout: 0.998
